Cited source: patent US20160137639A1

Biological target: human RORγ (Homo sapiens, UniProt P51449)
Construct: human, NM_005060.3 and from Ser253 to Lys518; expressed in transfected cells; host or cells: CHO cells (transient co-transfection with pG5-Luc reporter)
Sequence (P51449 253-518): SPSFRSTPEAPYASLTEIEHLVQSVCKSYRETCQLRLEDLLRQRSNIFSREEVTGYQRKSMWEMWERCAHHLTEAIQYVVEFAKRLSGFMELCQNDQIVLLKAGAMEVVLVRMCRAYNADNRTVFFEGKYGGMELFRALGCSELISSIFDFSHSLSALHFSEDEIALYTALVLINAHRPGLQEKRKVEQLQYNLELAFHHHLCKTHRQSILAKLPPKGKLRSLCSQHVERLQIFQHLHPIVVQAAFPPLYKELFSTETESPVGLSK
Test: Luciferase reporter gene assay of inhibitory effect against RORγ transcriptional activity (GAL4-hRORγ plasmid in CHO cells)
Assay type: cell-based
Details: read-out: LUC EC50 (μM) hRORg
measured.quantity: EC50

Use these answered entries as a reference point.
> print(dat)
                                   compound  measured.quantity  value.reported
1  Cc1c(Cl)cccc1NC(=O)CCc1nnc(CC(=O)OC(C)(C)C)n1C1CC1               EC50          < 3 µM
2  Cc1ccc(NC(=O)CCc2nnc(C3CC4(CCCC4)C3)n2C2CC2)c(C)c1               EC50          < 3 µM
3  COCc1ccc(C)c(NC(=O)CCc2nnc(CCC(C)C)n2C2CC2)c1               EC50          > 3 µM
4  Cc1ccc(NC(=O)CC(CCCN)c2nnc(CCCC(C)C)n2C2CC2)c(C)c1 (racemic)               EC50          > 3 µM
5  Cc1ccc(NC(=O)CC(Cc2nc(=O)on2C)c2nnc([C@H]3C[C@@H](CC(C)C)C3)n2C2CC2)c(C)c1 (mixture of isomers)               EC50          < 3 µM

List the reported EC50 of each compound below.
1. Cc1ccc(NC(=O)[C@H]2CN(S(=O)(=O)C(F)(F)F)C[C@@H]2c2nnc(CCCC(C)(C)C)n2C2CC2)c(C)c1 (racemic)
2. CC(=O)N1C[C@H](C(=O)Nc2ccc(C)cc2C)[C@@H](c2nnc([C@H]3C[C@@H](OC(C)C)C3)n2C2CC2)C1 (racemic) [Example F-330]

1: < 3 µM; 2: > 3 µM

Hey, quick one: what's EC50 for each of these?
1. Cc1c(NC(=O)CCc2nnc(CCC(C)C)n2C2CC2)cccc1C1CC1
2. Cc1c(Cl)cccc1NC(=O)CCc1nnc(CC(C)C(C)C)n1C1CC1 (racemic)
3. Cc1c(Cl)cccc1NC(=O)CCc1nnc(CC(C)C)n1C1CC1
4. C=CCC(CC(=O)NCc1ccc(C)cc1OC)c1nnc(CCC2CCCCC2)n1C1CC1 (racemic)
5. Cc1c(NC(=O)CCc2nnc(CCC(C)C)n2C2CC2)ccc(Cl)c1Cl
6. Cc1ccc(NC(=O)C[C@H](CCC(=O)O)c2noc(-c3cc(CC(C)C)on3)c2C2CC2)c(F)c1
7. Cc1ccc(NC(=O)CC(CN)c2nnc(CCCC(C)C)n2C2CC2)c(C)c1 (racemic)

["> 3 µM", "> 3 µM", "> 3 µM", "< 3 µM", "> 3 µM", "< 3 µM", "> 3 µM"]

# batch: return EC50 for each of the 7 compounds below
1. COC(C)(C)CCCc1nnc([C@H]2CN(C(C)=O)C[C@@H]2C(=O)Nc2ccc(C)cc2C)n1C1CC1 (racemic)
2. Cc1c(Cl)cccc1NC(=O)[C@H]1CN(C(=O)CO)C[C@@H]1c1nnc(CCC(C)C)n1C1CC1 (racemic)
3. Cc1ccc(NC(=O)CC(Cc2nccs2)c2nnc([C@H]3C[C@@H](CC(C)C)C3)n2C2CC2)c(C)c1 (mixture of isomers)
4. CC(C)(C)C(F)(F)c1cc(-c2onc([C@@H](CCC(=O)O)CC(=O)Nc3ccc(Cl)cc3F)c2C(F)F)no1
5. Cc1ccc(NC(=O)C[C@H](CCC(=O)O)c2noc(-c3cc(C(F)(F)CC(C)(C)C)on3)c2C2CC2)c(Cl)c1
6. Cc1ccc(NC(=O)C[C@H](CCC(=O)O)c2noc(-c3cc(CC(C)C)on3)c2C(F)(F)F)c(F)c1
7. Cc1ccc(NC(=O)C[C@H](C[C@H](O)CO)c2nnc(CCCC(C)C)n2C2CC2)c(C)c1

["> 3 µM", "> 3 µM", "< 3 µM", "< 3 µM", "< 3 µM", "> 3 µM", "< 3 µM"]

Items follow; give EC50 for each.
1. Cc1cc(F)ccc1NC(=O)C[C@H](CCC(=O)O)c1noc(-c2cc(CCC(C)(C)C)on2)c1C1CC1
2. C=CC[C@H](CC(=O)Nc1ccc(C)cc1C)c1nnc(CCCC(C)(C)C)n1C1CC1
3. Cc1ccc(NC(=O)[C@H]2CCCN(C)[C@@H]2c2nnc(CCC3CCCCC3)n2C2CC2)c(C)c1
4. Cc1cnccc1CNC(=O)CCc1nnc(CCC(C)C)n1C1CC1
5. Cc1cccc(C)c1NC(=O)CCc1nnc(CCC(C)C)n1C1CC1
6. COC(=O)C(C)(C)CCCc1nnc(CCC(=O)Nc2cccc(Cl)c2C)n1C1CC1

["< 3 µM", "> 3 µM", "< 3 µM", "> 3 µM", "> 3 µM", "< 3 µM"]

Please state, for each entry, its recorded EC50.
1. Cc1ccc(NC(=O)C[C@H](CCC(=O)O)c2noc(-c3cc(CCC(C)(C)C)on3)c2C2CC2)c(Cl)c1
2. CC(C)CCc1nnc(CCC(=O)NCc2ccccc2Cl)n1C1CC1
3. CC(C)CCc1nnc(CCC(=O)NCc2cccc3cn[nH]c23)n1C1CC1

["< 3 µM", "> 3 µM", "> 3 µM"]

----------
Biological target: human RORγ (Homo sapiens)
Construct: human, NM_005060.3 and from Ser253 to Lys518; expressed in transfected cells; host or cells: CHO cells (transient co-transfection with pG5-Luc reporter)
Experiment: Luciferase reporter gene assay of inhibitory effect against RORγ transcriptional activity (GAL4-hRORγ plasmid in CHO cells)
Type: cell-based
Details: read-out: LUC EC50 (μM) hRORg
measured.quantity: EC50

> print(dat)
                                   compound  value.reported
1  CC(=O)N1C[C@H](C(=O)Nc2ccc(C)cc2C)[C@@H](c2nnc(-c3ccc(CC(C)C)cc3)n2C2CC2)C1          < 3 µM

Please go through the list and note EC50 for each compound.
1. Cc1c(Cl)cccc1NC(=O)CC(CCN)c1nnc(CCCC(C)C)n1C1CC1 (racemic)
2. CC(C)CCc1nnc(CCC(=O)NCc2cccc3[nH]cnc23)n1C1CC1
3. CC(=O)N1C[C@@H](C(=O)Nc2ccc(C)cc2C)[C@H](c2nnc(-c3cc(CC(C)C)on3)n2C2CC2)C1
4. CC(=O)N1C[C@H](C(=O)Nc2ccc(C)cc2C)[C@@H](c2nnc(CCCC(C)C)n2C2CC2)C1 (racemic) [Example F-220]
5. Cc1ncccc1NC(=O)CCc1nnc(CCC(C)C)n1C1CC1
6. CC(C)CCc1nnc(CCC(=O)NCc2ccccc2)n1C1CC1

> 3 µM
> 3 µM
> 3 µM
< 3 µM
> 3 µM
> 3 µM

----------
Target: mouse RORγ (Mus musculus)
Construct: mouse, NM_011281.2 and from Ile251 to Lys516; expressed in transfected cells; host or cells: CHO cells (transient co-transfection with pG5-Luc reporter)
Sequence (P51450 251-516): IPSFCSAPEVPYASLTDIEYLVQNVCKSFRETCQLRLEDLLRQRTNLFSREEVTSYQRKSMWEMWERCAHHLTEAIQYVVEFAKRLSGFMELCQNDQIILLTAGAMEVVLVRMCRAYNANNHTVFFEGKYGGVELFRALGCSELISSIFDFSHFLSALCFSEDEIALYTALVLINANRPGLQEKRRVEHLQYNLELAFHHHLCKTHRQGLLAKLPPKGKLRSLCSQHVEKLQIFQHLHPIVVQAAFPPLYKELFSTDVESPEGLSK
Assay: Luciferase reporter gene assay of inhibitory effect against RORγ transcriptional activity (GAL4-mRORγ plasmid in CHO cells)
Assay type: cell-based
Conditions: read-out: LUC EC50 (μM) mRORg
For each of the molecules below, state its EC50.

Please review the entries below; each comes with its answer.
> print(dat)
                                   molecule  measured.quantity  value.reported
1  Cc1ccc(NC(=O)CC(CO)c2nnc(CCCC(C)C)n2C2CC2)c(C)c1 (racemic)               EC50          < 3 µM
2  CC(C)(C)Cc1cc(-c2noc([C@@H](CCC(=O)O)CC(=O)Nc3ccc(Cl)cc3Cl)c2C2CC2)no1               EC50          < 3 µM
3  Cc1ccc(NC(=O)C[C@H](CCO)c2nnc(CCCC(C)C)n2C2CC2)c(C)c1               EC50          < 3 µM
4  CC(=O)NCCCC(CC(=O)Nc1ccc(C)cc1C)c1nnc(CCCC(C)C)n1C1CC1 (racemic)               EC50          > 3 µM
5  O=C(O)CC[C@@H](CC(=O)Nc1ccc(Cl)cc1F)c1noc(-c2cc(C3CCCC3)on2)c1C1CC1               EC50          < 3 µM
6  Cc1ccc(NC(=O)[C@H]2CNC[C@@H]2c2nnc(CCCC(C)(C)C)n2C2CC2)c(C)c1 (racemic)               EC50          > 3 µM

Value sought for every listed molecule: EC50.
1. CCn1c(CCC(=O)Nc2cccc(Cl)c2C)nnc1C1Cc2ccccc2C1
2. Cc1c(Cl)cccc1NC(=O)CCc1nnc(C(O)CC(C)C)n1C1CC1 (racemic)

["< 3 µM", "< 3 µM"]
